# STUDY TARGET: Transient receptor potential cation channel subfamily V member 1 (Homo sapiens) (UniProt Q8NER1)
# Sequence (Q8NER1 whole entry, looked up): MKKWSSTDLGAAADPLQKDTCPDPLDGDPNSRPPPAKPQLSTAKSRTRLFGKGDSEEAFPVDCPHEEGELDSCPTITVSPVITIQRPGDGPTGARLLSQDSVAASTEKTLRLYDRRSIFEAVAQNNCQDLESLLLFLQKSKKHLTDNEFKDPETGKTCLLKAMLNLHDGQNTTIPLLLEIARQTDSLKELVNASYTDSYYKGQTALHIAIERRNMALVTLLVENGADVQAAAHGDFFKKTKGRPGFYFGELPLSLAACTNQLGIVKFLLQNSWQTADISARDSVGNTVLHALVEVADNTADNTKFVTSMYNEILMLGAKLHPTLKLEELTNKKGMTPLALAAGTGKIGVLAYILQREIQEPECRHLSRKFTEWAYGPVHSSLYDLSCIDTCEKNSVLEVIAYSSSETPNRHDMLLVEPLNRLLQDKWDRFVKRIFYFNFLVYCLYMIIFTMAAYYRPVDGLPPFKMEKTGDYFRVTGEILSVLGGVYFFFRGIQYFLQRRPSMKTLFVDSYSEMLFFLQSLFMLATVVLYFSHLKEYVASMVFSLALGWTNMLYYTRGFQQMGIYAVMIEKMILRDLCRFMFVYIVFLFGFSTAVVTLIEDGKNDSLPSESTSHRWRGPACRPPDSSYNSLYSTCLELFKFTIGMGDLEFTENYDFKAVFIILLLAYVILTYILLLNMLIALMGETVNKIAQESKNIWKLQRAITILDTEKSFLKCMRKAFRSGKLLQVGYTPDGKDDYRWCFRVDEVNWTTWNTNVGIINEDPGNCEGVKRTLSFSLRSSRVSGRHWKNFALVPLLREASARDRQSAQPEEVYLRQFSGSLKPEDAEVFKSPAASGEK
# ASSAY INFO: qHTS Assay for Compounds that Act as Potentiators of the Vanilloid Receptor 1: Hit Validation
# TEST CONTEXT: TRPV1-expressing cells, Fluo-8 calcium influx, capsaicin EC20; series mostly up to 42.1 µM
In all, about 1,400 compounds went through this assay and fewer than 10 were called active. About 8% were inconclusive and are not listed. The call rests on the fitted dose curve; in most records, active means well fitted curve in the direction sought with a large enough effect; inconclusive means small, poorly fitted or top-dose-only effect, or another doubt; inactive means no such curve, though single readings can be large or run the other way. Only a sample is shown.
I would appreciate it if you answered using one of these outcomes: active, inactive

Exercise: Field: outcome | Entry: `Cc1nc(C(F)(F)F)ccc1C(=O)Nc1ccc(C(F)(F)F)cn1`
Solution: inactive

Exercise: Could you check what this test reported for CC(C)NC(=O)C1CC=CCC1C(=O)O (centres undefined) ?
Solution: inactive

Exercise: What was the test verdict on `Nn1c(Cc2ccccc2)nc2cc(Cl)ccc2c1=O` ?
Solution: inactive

Exercise: Would you mind telling me which call this test gave COc1ccc2c(c1)C(c1ccc(Cl)cc1)NC(=O)C2 (centres undefined) ?
Solution: inactive

Exercise: Please let me know the test result on file for Cc1ccc(NC(=O)CN(C)C(C)C(=O)Nc2ccc(S(=O)(=O)N3CCCC3)cc2)cc1 (centres undefined) .
Solution: inactive

Exercise: Outcome logged for Cc1ccc(S(=O)(=O)NCC(c2cccnc2)N2CCOCC2)cc1 (centres undefined) in this assay:
Solution: inactive

Exercise: // return assay outcome for `Cc1ccc2c(c1)[C@H]1[C@H](CO2)[C@H](c2ccccc2)[C@]2(C)C(=O)Nc3cc(Cl)ccc3C(=O)N12`
Solution: inactive

Exercise: Assay result, entry COc1ccc(C(=O)N(C)C2CCCN(Cc3ccccc3F)C2)cc1OC (centres undefined) — outcome?
Solution: inactive

Exercise: Please share the test call associated with O=C(CSc1nnc(Cc2ccccc2)o1)NC1CC2CCC1C2 (centres undefined) .
Solution: inactive

Exercise: // return assay outcome for CSCCC(NC(=O)c1ccc(Cl)cc1)C(=O)NC(C)(C)C (centres undefined)
Solution: inactive

Exercise: What was the test verdict on `COc1ccc(-c2nn(-c3ccccc3)cc2C(=O)NC(=S)Nc2cc(Cl)ccc2Cl)cc1` ?
Solution: inactive

Exercise: What was the test verdict on `Cn1nc(C(C)(C)C)cc1C(=O)NCc1ccc(N2CCCC2=O)cc1` ?
Solution: inactive

Exercise: Assay outcome for `COc1ccc(Cc2c(N)nc(C)nc2N)cc1` : what was it?
Solution: inactive

Exercise: Could you check what this test reported for `COc1cccc(CNC(=S)Nc2cccc(Cl)c2C)c1` ?
Solution: inactive

Exercise: Status in this test for `COc1ccccc1Nc1ncnc2c1cnn2-c1cccc(C)c1` ?
Solution: inactive

Exercise: Which outcome was entered for the compound CS(=O)(=O)N1N=C(c2cccs2)CC1c1ccc(Cl)o1 (centres undefined) in this test?
Solution: inactive

Exercise: Kindly provide the recorded test outcome for the following compound: `O=C(CSc1nc(C2CC2)nc2ccccc12)N1CCCCC1`
Solution: inactive

Exercise: Per the records of this test, what outcome belongs to `Cn1c(=O)c2ccccc2n(CC(=O)Nc2ccc3c(c2)OCCO3)c1=O` ?
Solution: inactive

Exercise: Dear all, I need the recorded test outcome for `CC(C)(C)c1ccc(C(=O)NNC(=O)C2CCCCC2)cc1` , thank you.
Solution: inactive

Exercise: How did this test come out for `O=C(O/N=C1\CCS(=O)(=O)c2sccc21)c1c(F)cccc1F` ?
Solution: inactive

Exercise: Hi, sorry to bother you, what did the test record for `COCCN(CCOC)S(=O)(=O)c1ccc(C(=O)Nc2nnc(C3CC3)o2)cc1` ?
Solution: inactive

Exercise: Name the outcome recorded for `CCCCC(=O)Nc1ccc(C(=O)Nc2ccc(S(=O)(=O)N3CCCC3)cc2)cc1` in the assay.
Solution: inactive

Exercise: Which result was noted for this compound in the test: `COc1ccc(-[n+]2c(C)cc(/C=C3\Sc4ccccc4N3C)cc2C)cc1`
Solution: active

Exercise: For `Cc1cccc(C)c1OCC(=O)Nc1cccc(S(=O)(=O)N2CCCC2)c1` , what call appears in the results of this test?
Solution: inactive

The origin of these recorded values is PubChem BioAssay AID623959.
